# ASSAY_TARGET: recombinant homotrimeric HA, A/common magpie/Hong Kong/5052/07 H5N1 (Influenza A virus A/common magpie/Hong Kong/5052/07 (H5N1))
# METHOD: trimeric HA microarray, transfection set 3
# DETAILS: remark: other sources report otherwise
Label scheme for Trimeric HA Binding RLU: lower than 6000 RLU is condition not met, 6000 RLU and above is condition met.

Here's what some known entries look like.
INSERT INTO results (binder, group_label) VALUES
  ('TCN-530 (5248_H10a) (antibody, V domains shown) VH: QVQLVQSGAEVRKPGSSVKVSCKASGGPFMSYAIGWVRQAPGQGLEWMGGINPVFGRPHYAQKFQGRVTIATDDSTKTSYMELSSLTSEDTGMYYCASRYSRSSPGTFESWGQGTLVTVSS VL: EIVMTQFPATLSVSPGERVTLSCRASQSVSNNLAWYQQKPGQPPRLLIYDASTRATGVPAKFSGTGSGTEFTLSISSLQSEDFAVYYCQQYHNWPPSYSFGLGTKLEIK', 'condition not met'),
  ('TCN-523 (5248_A17) (antibody, V domains shown) VH: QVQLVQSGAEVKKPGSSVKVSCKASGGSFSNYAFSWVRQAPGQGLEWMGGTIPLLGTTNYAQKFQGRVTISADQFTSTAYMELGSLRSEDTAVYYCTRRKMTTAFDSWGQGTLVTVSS VL: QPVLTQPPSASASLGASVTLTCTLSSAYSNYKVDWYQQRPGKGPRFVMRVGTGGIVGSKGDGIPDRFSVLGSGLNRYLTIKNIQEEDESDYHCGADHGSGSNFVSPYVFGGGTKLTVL', 'condition not met'),
  ('TCN-533 (5256_A17) (antibody, V domains shown) VH: QVQLVQSGADVKKPGSSVTVSCKASGGSFSNYGINWVRQAPGQGLEWMGGIIPLINAPNYAPKFQGRVTITADMFSNIVSLQLTSLRTDDTAVYYCARRKMTTAIDYWGQGTLVTVSS VL: QPVLSQPPSASASLGASVTLTCTLSSGFDNYQVAWYQQRPGKGPRFVMRVGNGGNVASKGDGIPDRFSVSGSGLNRYLTIKNIQEDDESDYYCGADHGSGNNFVSPYVFGGGTKLTVL', 'condition met'),
  ('TCN-504 (3251_K17) (antibody, V domains shown) VH: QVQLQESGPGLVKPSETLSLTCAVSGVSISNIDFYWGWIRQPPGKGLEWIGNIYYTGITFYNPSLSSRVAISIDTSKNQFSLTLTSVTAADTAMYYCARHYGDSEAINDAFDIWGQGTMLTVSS VL: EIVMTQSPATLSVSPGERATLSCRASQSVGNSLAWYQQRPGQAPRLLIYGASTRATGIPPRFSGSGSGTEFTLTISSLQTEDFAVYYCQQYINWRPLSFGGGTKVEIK', 'condition met');

Turning now to a further record.
In: Form field: Trimeric HA Binding RLU at least 6000 RLU? Entry: TCN-531 (5091_H13) (antibody, V domains shown) VH: EVQLVESGGDLVQPGRSLKLSCTGSGFTFGDYGVTWVRQAPGKGLEWVGFIRTRPWGGTADTAASVKGRFTISRDDSKSLAYLQMNSLKTEDTAVYYCCRDAPPNVEVASMTNWYFDLWGRGTLVTVSS VL: DIQLTQSPSSLSASVGDRVTITCRASQGILNCLAWYQQKPGKVPNLLMYAASTLQSGVPSRFSGSGFGTDFTLTISSLQPEDVATYYCQTYGGVSTFGGGTKVEIR
Out: condition not met
